Target System: the molecule itself
Procedure Details: SEC-MALS
Some proteins, each annotated with its measured stoichiometry N.
Answer as a number with no unit attached.

The examples below pair each entry with its known result.
{"columns": ["Protein", "Experimental Value"],
 "data": [
  ["L27E CtIP-NTD, human CtIP residues 18-145 with L27E (domain or fragment) SDFKDLWTKEKECHDREVQGLQVKVTKLKQERILDAQRLEEFFTKNQQLREQQKVLHETIKVLEDRLRAGLCDRCAVTEEHMRKKQQEFENIRQQNLKLITELMNERNTLQEENKKLSEQLQQKIEND", 2],
  ["CtIP-cNTD-DM, C89A C92A double mutant of CtIP residues 52-145 (domain or fragment) DAQRLEEFFTKNQQLREQQKVLHETIKVLEDRLRAGLADRAAVTEEHMRKKQQEFENIRQQNLKLITELMNERNTLQEENKKLSEQLQQKIEND", 2],
  ["SDFKDLWTKLKECHDREVQGLQVKVTKLKQERILD (domain or fragment) [CtIP-nNTD, tetramerization domain of human CtIP, residues 18-52]", 4],
  ["Δ20-27 CtIP-NTD, human CtIP residues 18-145 with residues 20-27 deleted (domain or fragment) SDKECHDREVQGLQVKVTKLKQERILDAQRLEEFFTKNQQLREQQKVLHETIKVLEDRLRAGLCDRCAVTEEHMRKKQQEFENIRQQNLKLITELMNERNTLQEENKKLSEQLQQKIEND", 2]
]}

Form field stoichiometry N, entry CtIP-cNTD, human CtIP residues 52-145 (domain or fragment) DAQRLEEFFTKNQQLREQQKVLHETIKVLEDRLRAGLCDRCAVTEEHMRKKQQEFENIRQQNLKLITELMNERNTLQEENKKLSEQLQQKIEND : 2
